test system: Human immunodeficiency virus 1; test: The concentration required to inhibit HIV-1 RNA synthesis by 90%. Viral RNA quantified by a sandwich hybridization assay; type: functional; settings: Human immunodeficiency virus 1
ATTRIBUTE MEASURED: log10(IC90) (log10 of the value in nM)
Recorded IC90 (log10, nM)

Please review the entries below; each comes with its answer.
O=C(Nc1ncc(Cl)cc1Cl)c1cccc(CN2C(=O)N(Cc3cccc(C(=O)Nc4ncc(Cl)cc4Cl)c3)[C@H](Cc3ccccc3)[C@H](O)[C@@H](O)[C@H]2Cc2ccccc2)c1; 1.63
O=C(Nc1nnc(C(F)(F)F)s1)c1cccc(CN2C(=O)N(Cc3cccc(C(=O)Nc4nnc(C(F)(F)F)s4)c3)[C@H](Cc3ccccc3)[C@H](O)[C@@H](O)[C@H]2Cc2ccccc2)c1; 1.87
Cc1cccc(NC(=O)c2cccc(CN3C(=O)N(Cc4cccc(C(=O)Nc5cccc(C)n5)c4)[C@H](Cc4ccccc4)[C@H](O)[C@@H](O)[C@H]3Cc3ccccc3)c2)n1; 0.51
Cc1csc(NC(=O)c2cccc(CN3C(=O)N(Cc4cccc(C(=O)Nc5nc(C)cs5)c4)[C@H](Cc4ccccc4)[C@H](O)[C@@H](O)[C@H]3Cc3ccccc3)c2)n1; 0.61
CC(C)c1nc(CN(C)C(=O)N[C@H](C(=O)N[C@@H](Cc2ccccc2)C[C@H](O)[C@H](Cc2ccccc2)NC(=O)OCc2cncs2)C(C)C)cs1; 1.88
O=C(Nc1nncs1)c1cccc(CN2C(=O)N(Cc3cccc(C(=O)Nc4nncs4)c3)[C@H](Cc3ccccc3)[C@H](O)[C@@H](O)[C@H]2Cc2ccccc2)c1; 1.71
CC(C)NC(=O)c1cccc(CN2C(=O)N(Cc3cccc(C(=O)NC(C)C)c3)[C@H](Cc3ccccc3)[C@H](O)[C@@H](O)[C@H]2Cc2ccccc2)c1; 2.42
CC(C)(C)NC(=O)[C@@H]1CN(Cc2cccnc2)CCN1C[C@@H](O)C[C@@H](Cc1ccccc1)C(=O)NC1c2ccccc2C[C@H]1O (single isomer, unassigned); 1.70
Cc1cccnc1NC(=O)c1cccc(CN2C(=O)N(Cc3cccc(C(=O)Nc4ncccc4C)c3)[C@H](Cc3ccccc3)[C@H](O)[C@@H](O)[C@H]2Cc2ccccc2)c1; 1.70

We next turn to a different compound, shown below.
Look up and state reported log10(IC90) for `CCNC(=O)c1cccc(CN2C(=O)N(Cc3cccc(C(=O)NCC)c3)[C@H](Cc3ccccc3)[C@H](O)[C@@H](O)[C@H]2Cc2ccccc2)c1`
2.14

---

molecular target: Human immunodeficiency virus type 1 protease (Human immunodeficiency virus 1); assay: Binding affinity for HIV-1 protease
Friendly reminder: Ki below 0.08 nM is true (1), at or above is false (0).

These recorded examples may help you get a feel for the data.
O=C(NO)c1cccc(CN2C(=O)N(Cc3cccc(C(=O)NO)c3)[C@H](Cc3ccccc3)[C@H](O)[C@@H](O)[C@H]2Cc2ccccc2)c1; true (1)
O=C(Nc1ccc(C(F)(F)F)cn1)c1cccc(CN2C(=O)N(Cc3cccc(C(=O)Nc4ccc(C(F)(F)F)cn4)c3)[C@H](Cc3ccccc3)[C@H](O)[C@@H](O)[C@H]2Cc2ccccc2)c1; false (0)
O=C(Nc1ccccc1)c1cccc(CN2C(=O)N(Cc3cccc(C(=O)Nc4ccccc4)c3)[C@H](Cc3ccccc3)[C@H](O)[C@@H](O)[C@H]2Cc2ccccc2)c1; false (0)
NNC(=O)c1cccc(CN2C(=O)N(Cc3cccc(C(=O)NN)c3)[C@H](Cc3ccccc3)[C@H](O)[C@@H](O)[C@H]2Cc2ccccc2)c1; true (1)
O=C(Nc1cccnc1)c1cccc(CN2C(=O)N(Cc3cccc(C(=O)Nc4cccnc4)c3)[C@H](Cc3ccccc3)[C@H](O)[C@@H](O)[C@H]2Cc2ccccc2)c1; false (0)
O=C(Nc1ccc(Br)cn1)c1cccc(CN2C(=O)N(Cc3cccc(C(=O)Nc4ccc(Br)cn4)c3)[C@H](Cc3ccccc3)[C@H](O)[C@@H](O)[C@H]2Cc2ccccc2)c1; true (1)
Cc1cccnc1NC(=O)c1cccc(CN2C(=O)N(Cc3cccc(C(=O)Nc4ncccc4C)c3)[C@H](Cc3ccccc3)[C@H](O)[C@@H](O)[C@H]2Cc2ccccc2)c1; false (0)
O=C(Nc1ncccn1)c1cccc(CN2C(=O)N(Cc3cccc(C(=O)Nc4ncccn4)c3)[C@H](Cc3ccccc3)[C@H](O)[C@@H](O)[C@H]2Cc2ccccc2)c1; false (0)

Strictly below 0.08 nM: is that where Ki of CNC(=O)c1cccc(CN2C(=O)N(Cc3cccc(C(=O)NC)c3)[C@H](Cc3ccccc3)[C@H](O)[C@@H](O)[C@H]2Cc2ccccc2)c1 (stereo in doubt; 6) sits?
true (1)

Strictly below 0.08 nM: is that where Ki of `CC(C)(C)NC(=O)c1cccc(CN2C(=O)N(Cc3cccc(C(=O)NC(C)(C)C)c3)[C@H](Cc3ccccc3)[C@H](O)[C@@H](O)[C@H]2Cc2ccccc2)c1` sits?
false (0)

Strictly below 0.08 nM: is that where Ki of `O=C(Nc1ccncc1)c1cccc(CN2C(=O)N(Cc3cccc(C(=O)Nc4ccncc4)c3)[C@H](Cc3ccccc3)[C@H](O)[C@@H](O)[C@H]2Cc2ccccc2)c1` sits?
false (0)

---

tested on: Human immunodeficiency virus 1; test: The concentration required to inhibit HIV-1 RNA synthesis by 90%. Viral RNA quantified by a sandwich hybridization assay; format: functional; conditions: Human immunodeficiency virus 1
ATTRIBUTE MEASURED: IC90 (nM)
State the answer as a number, implicitly in nM.

Please review the entries below; each comes with its answer.
O=C(Nc1ncccn1)c1cccc(CN2C(=O)N(Cc3cccc(C(=O)Nc4ncccn4)c3)[C@H](Cc3ccccc3)[C@H](O)[C@@H](O)[C@H]2Cc2ccccc2)c1; 220
O=C(NO)c1cccc(CN2C(=O)N(Cc3cccc(C(=O)NO)c3)[C@H](Cc3ccccc3)[C@H](O)[C@@H](O)[C@H]2Cc2ccccc2)c1; 448

We next turn to a different compound, shown below.
# return IC90 for `NC(=O)c1cccc(CN2C(=O)N(Cc3cccc(C(N)=O)c3)[C@H](Cc3ccccc3)[C@H](O)[C@@H](O)[C@H]2Cc2ccccc2)c1` , test system: Human immunodeficiency virus 1
709

---

system: Human immunodeficiency virus 1; test: The concentration required to inhibit HIV-1 RNA synthesis by 90%. Viral RNA quantified by a sandwich hybridization assay; assay type: functional; conditions: Human immunodeficiency virus 1
Each entry below carries its reported IC90.
State the answer as a number, implicitly in nM.

Please review the entries below; each comes with its answer.
CC(C)CN(C[C@@H](O)[C@H](Cc1ccccc1)NC(=O)O[C@H]1CCOC1)S(=O)(=O)c1ccc(N)cc1; 46
O=C(Nc1ccccc1)c1cccc(CN2C(=O)N(Cc3cccc(C(=O)Nc4ccccc4)c3)[C@H](Cc3ccccc3)[C@H](O)[C@@H](O)[C@H]2Cc2ccccc2)c1; 510
Cc1ccnc(NC(=O)c2cccc(CN3C(=O)N(Cc4cccc(C(=O)Nc5cc(C)ccn5)c4)[C@H](Cc4ccccc4)[C@H](O)[C@@H](O)[C@H]3Cc3ccccc3)c2)c1; 7.7

Look up and state reported IC90 for `Cc1cnc(NC(=O)c2cccc(CN3C(=O)N(Cc4cccc(C(=O)Nc5ncc(C)s5)c4)[C@H](Cc4ccccc4)[C@H](O)[C@@H](O)[C@H]3Cc3ccccc3)c2)s1`
17.8

Look up and state reported IC90 for `O=C(Nc1ccc(Br)cn1)c1cccc(CN2C(=O)N(Cc3cccc(C(=O)Nc4ccc(Br)cn4)c3)[C@H](Cc3ccccc3)[C@H](O)[C@@H](O)[C@H]2Cc2ccccc2)c1`
28.2

Look up and state reported IC90 for `O=C(Nc1nccs1)c1cccc(CN2C(=O)N(Cc3cccc(C(=O)Nc4nccs4)c3)[C@H](Cc3ccccc3)[C@H](O)[C@@H](O)[C@H]2Cc2ccccc2)c1`
1.7

---

biological target: Human immunodeficiency virus type 1 protease (Human immunodeficiency virus 1, UniProt Q72874); assay: Binding affinity for HIV-1 protease
ATTRIBUTE MEASURED: Ki (nM)
State the answer as a number, implicitly in nM.

Look up and state reported Ki for `CCCCNC(=O)c1cccc(CN2C(=O)N(Cc3cccc(C(=O)NCCCC)c3)[C@H](Cc3ccccc3)[C@H](O)[C@@H](O)[C@H]2Cc2ccccc2)c1`
0.424

Look up and state reported Ki for `CCNC(=O)c1cccc(CN2C(=O)N(Cc3cccc(C(=O)NCC)c3)[C@H](Cc3ccccc3)[C@H](O)[C@@H](O)[C@H]2Cc2ccccc2)c1`
0.21

Look up and state reported Ki for `O=C(NCC(F)(F)F)c1cccc(CN2C(=O)N(Cc3cccc(C(=O)NCC(F)(F)F)c3)[C@H](Cc3ccccc3)[C@H](O)[C@@H](O)[C@H]2Cc2ccccc2)c1`
0.21

Look up and state reported Ki for `O=C(Nc1cnccn1)c1cccc(CN2C(=O)N(Cc3cccc(C(=O)Nc4cnccn4)c3)[C@H](Cc3ccccc3)[C@H](O)[C@@H](O)[C@H]2Cc2ccccc2)c1`
0.02

Look up and state reported Ki for `O=C(Nc1ncc(Cl)cc1Cl)c1cccc(CN2C(=O)N(Cc3cccc(C(=O)Nc4ncc(Cl)cc4Cl)c3)[C@H](Cc3ccccc3)[C@H](O)[C@@H](O)[C@H]2Cc2ccccc2)c1`
0.24

Look up and state reported Ki for `Cc1cccc(NC(=O)c2cccc(CN3C(=O)N(Cc4cccc(C(=O)Nc5cccc(C)n5)c4)[C@H](Cc4ccccc4)[C@H](O)[C@@H](O)[C@H]3Cc3ccccc3)c2)n1`
0.02

Look up and state reported Ki for `Cc1ccnc(NC(=O)c2cccc(CN3C(=O)N(Cc4cccc(C(=O)Nc5nccc(C)n5)c4)[C@H](Cc4ccccc4)[C@H](O)[C@@H](O)[C@H]3Cc3ccccc3)c2)n1`
0.12

Look up and state reported Ki for `CCCNC(=O)c1cccc(CN2C(=O)N(Cc3cccc(C(=O)NCCC)c3)[C@H](Cc3ccccc3)[C@H](O)[C@@H](O)[C@H]2Cc2ccccc2)c1`
0.28

Look up and state reported Ki for `O=C(Nc1ccc(Cl)cn1)c1cccc(CN2C(=O)N(Cc3cccc(C(=O)Nc4ccc(Cl)cn4)c3)[C@H](Cc3ccccc3)[C@H](O)[C@@H](O)[C@H]2Cc2ccccc2)c1`
0.01

Look up and state reported Ki for `CC(C)NC(=O)c1cccc(CN2C(=O)N(Cc3cccc(C(=O)NC(C)C)c3)[C@H](Cc3ccccc3)[C@H](O)[C@@H](O)[C@H]2Cc2ccccc2)c1`
0.58

Look up and state reported Ki for `NC(=O)c1cccc(CN2C(=O)N(Cc3cccc(C(N)=O)c3)[C@H](Cc3ccccc3)[C@H](O)[C@@H](O)[C@H]2Cc2ccccc2)c1`
0.06

Look up and state reported Ki for `Cc1ccc(NC(=O)c2cccc(CN3C(=O)N(Cc4cccc(C(=O)Nc5ccc(C)cn5)c4)[C@H](Cc4ccccc4)[C@H](O)[C@@H](O)[C@H]3Cc3ccccc3)c2)nc1`
0.01
